assay: NCI Yeast Anticancer Drug Screen. Data for the mlh1 rad18 strain (AID 175); conditions: S. cerevisiae mlh1 rad18 strain growth inhibition, hits give high values; at 50.0 µM unless noted
The panel holds about 79,000 compounds, 15% with a hit somewhere; the sample as a whole holds those more often.
Listed next: entries and their corresponding growth inhibition.
Numeric answer only, unit % assumed.

COMPOUND: CCNc1cccc(C)c1
growth inhibition, %: 23.1

Per the records, this compound ( O=C(c1ccccc1)N1c2ccc([N+](=O)[O-])cc2Sc2cc([N+](=O)[O-])ccc21 ) has growth inhibition equal to 13.1

Per the records, this compound ( O=C(/C=C/c1ccc(O)c(O)c1)OC1CC(O)(C(=O)O)CC(O)C1O (centres undefined) (tested in a mixture with another compound) ) has growth inhibition equal to -12.3

Per the records, this compound ( C#CC(O)C1OC(C)(C)OC1C1COC(C)(C)O1 (centres undefined) ) has growth inhibition equal to -5.65

Per the records, this compound ( Nc1nc(=S)[nH]c(=S)[nH]1 ) has growth inhibition equal to -4.45

Per the records, this compound ( C[N+]1(CCC(=O)c2ccccc2)CCOCC1 ) has growth inhibition equal to 19.9

Per the records, this compound ( NC(=O)C(c1ccccc1)C1(O)CCCCC1 (centres undefined) ) has growth inhibition equal to 11.4

Per the records, this compound ( CCn1c(CCCc2nc3c([nH]2)c(=O)n(C)c(=O)n3C)nc2c1c(=O)n(C)c(=O)n2C ) has growth inhibition equal to -15.3

Per the records, this compound ( NC(=O)c1ccccc1OC(=O)Nc1ccc(F)c([N+](=O)[O-])c1 ) has growth inhibition equal to 12.1

Per the records, this compound ( Cc1ccc(O)cc1N(C)C ) has growth inhibition equal to -3.65

Per the records, this compound ( c1cc(-c2ncc[nH]2)ccn1 ) has growth inhibition equal to -8.2

Per the records, this compound ( CCOc1ccc(N=Nc2c(-c3ccccc3)nn(C(=O)CC(=O)Nc3ccccc3Cl)c2-c2ccccc2)cc1 ) has growth inhibition equal to 18.7

Per the records, this compound ( Cc1ccccc1NS(=O)(=O)N1CCCCC1 ) has growth inhibition equal to -5.65

Per the records, this compound ( c1ccc2nn(C3CCCO3)nc2c1 (centres undefined) ) has growth inhibition equal to -43.5

---

assay: NCI Yeast Anticancer Drug Screen. Data for the sgs1 mgt1 strain (AID 161);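 also: 0% = growth of cultures given vehicle only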; settings: S. cerevisiae sgs1 mgt1 strain, hits give high values; at 50.0 µM unless noted
The panel holds about 79,000 compounds, 15% with a hit somewhere; the sample as a whole holds those more often.
Listed next: entries and their corresponding growth inhibition.
Numeric answer only, unit % assumed.

A selection of reference data follows.
COMPOUND: O=C(OCc1ccccc1)ON1C(=O)C2C3C=CC(C3)C2C1=O (centres undefined)
growth inhibition, %: 12.5

COMPOUND: Cc1c(C)c(C)c(CCc2c(C)c(C)c(C)c(C)c2C)c(C)c1C
growth inhibition, %: -0.9

COMPOUND: CN(C)c1nc(N(C)C)nc(N(C)CN(C)c2ccc(Cl)cc2)n1
growth inhibition, %: -26.8

Let us move to another entry and its growth inhibition.
Per the records, this compound ( C=C(C)C(C)OC(=O)Nc1ccccc1 (centres undefined) ) has growth inhibition equal to -16.1

---

experiment: NCI Yeast Anticancer Drug Screen. Data for the bub3 strain (AID 167); conditions: S. cerevisiae bub3 mutant strain, hits give high values; at 50.0 µM unless noted
Compounds without any hit were thinned out: in the full panel of roughly 79,000, 15% have a hit.
REPORTED ENDPOINT: growth inhibition (%)
Numeric answer only, unit % assumed.

MOLECULE: O=[N+]([O-])c1c[nH]c2ncnc(Cl)c12
QUANTITATIVE READOUT: -3
--
MOLECULE: CN1CCc2nc[nH]c2C1
QUANTITATIVE READOUT: 6.4
--
MOLECULE: Brc1cc(Br)cc(CN2CCOCC2)c1
QUANTITATIVE READOUT: 56.8
--
MOLECULE: C/C(CCC(CC(=O)O)C(C)C)=N\NC(N)=O (configuration not stated)
QUANTITATIVE READOUT: -27.4
--
MOLECULE: CCOC(=O)c1nc2ccccc2nc1NCc1cc(OC)c(OC)c(OC)c1
QUANTITATIVE READOUT: -7.9

Per the records, this molecule ( CCC(NN)C(=O)O (configuration not stated) ) has growth inhibition equal to -9.5

Per the records, this molecule ( ClC(Cl)(Cl)c1ncnc2nc[nH]c12 ) has growth inhibition equal to -16.9

Per the records, this molecule ( CC(C)c1ccc(/C(C(=O)O)=C(\O)C(=O)O)cc1 ) has growth inhibition equal to -31.6

Per the records, this molecule ( O=c1cc(Cl)c(=O)n(-c2ccccc2)[nH]1 ) has growth inhibition equal to 0.9

Per the records, this molecule ( COC1OC(COC(=O)c2ccc([N+](=O)[O-])cc2)C2SC12 (configuration not stated) ) has growth inhibition equal to 6.7

---

assay: NCI Yeast Anticancer Drug Screen. Data for the cln2 rad14 strain (AID 165);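 also: 0% = growth equal to vehicle treated cultures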; conditions: S. cerevisiae cln2 rad14 strain, hits give high values; at 50.0 µM unless noted
Compounds without any hit were thinned out: in the full panel of roughly 79,000, 15% have a hit.
Listed next: entries and their corresponding growth inhibition.
Numeric answer only, unit % assumed.

A selection of reference data follows.
COMPOUND: C1CSCCSCCS1
QUANTITATIVE READOUT: 4.85

COMPOUND: O=C1Nc2cc(Br)ccc2C1=O
QUANTITATIVE READOUT: 11.8

COMPOUND: CC1C(c2ccccc2)OCCN1CN1C(=O)c2ccccc2C1=O (centres undefined)
QUANTITATIVE READOUT: 21.8

COMPOUND: O=C(c1ccccc1)C(F)S(=O)(=O)O (centres undefined)
QUANTITATIVE READOUT: -25.8

Per the records, this compound ( O=C(O)CCC1NCCCO1 (centres undefined) ) has growth inhibition equal to -35.1

Per the records, this compound ( Cc1[nH]c(=O)[nH]c(=O)c1CCO ) has growth inhibition equal to -29.4

Per the records, this compound ( COc1c(OC(C)=O)c(OC(C)=O)cc2c1-c1ccc(SC)c(=O)cc1C(NC(C)=O)CC2 (centres undefined) ) has growth inhibition equal to -24.6

Per the records, this compound ( CN(C)/C=N/NC(=O)/C(C#N)=C/N(C)C ) has growth inhibition equal to -24.8

Per the records, this compound ( COC(=O)c1cc(NC(=O)Nc2cccc(C(C)=O)c2)cc(C(=O)OC)c1 ) has growth inhibition equal to -10.2

Per the records, this compound ( C=C1CC(c2ccccc2)(c2cccs2)OC1=O (centres undefined) ) has growth inhibition equal to 14.3

Per the records, this compound ( CC(=O)OCC(O)CS(=O)c1ccc(C)cc1 (centres undefined) ) has growth inhibition equal to -30.6

---

assay: NCI Yeast Anticancer Drug Screen. Data for the rad50 strain (AID 155);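 also: 0% = growth of vehicle-only cultures of the same strain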; conditions: S. cerevisiae rad50 strain growth inhibition, hits give high values; at 50.0 µM unless noted
Compounds without any hit were thinned out: in the full panel of roughly 79,000, 15% have a hit.
REPORTED ENDPOINT: growth inhibition (%)
Numeric answer only, unit % assumed.

COMPOUND: CC1CC(=O)Nc2nc3ccccc3n21 (stereo not given)
QUANTITATIVE READOUT: 7.15

COMPOUND: NCCCCCN
QUANTITATIVE READOUT: 14.4

COMPOUND: C(#Cc1ccccc1)CC#Cc1ccccc1
QUANTITATIVE READOUT: 5.4

COMPOUND: CCCC(=O)OC1CC(n2cc(F)c(=O)[nH]c2=O)OC1CO (stereo not given)
QUANTITATIVE READOUT: 8.6

COMPOUND: CSC(C1c2ccccc2N(c2ccc(C)cc2)c2[nH]c(=O)n(C)c(=O)c21)S(=O)(=O)c1ccc(C)cc1 (stereo not given)
QUANTITATIVE READOUT: 23.1

Per the records, this compound ( O=C1C=C(Nc2ccccc2)C(=O)C=C1Nc1ccccc1 ) has growth inhibition equal to -2.3

Per the records, this compound ( CCN1CCNC(c2ccccc2)C1(C)C (stereo not given) ) has growth inhibition equal to -2.35

Per the records, this compound ( CC(=O)N(C(=O)CC(=O)NNCc1ccccc1Cl)c1ccc(Cl)cc1 ) has growth inhibition equal to -11.4

Per the records, this compound ( Cc1onc(-c2ccccc2)c1C(C)(O)c1ccccc1 (stereo not given) ) has growth inhibition equal to 12.8

Per the records, this compound ( CN(C)CC=C(c1ccccc1)c1ccccc1 ) has growth inhibition equal to -11.9

Per the records, this compound ( CC1(C)OC1CS(=O)c1ccccc1 (stereo not given) ) has growth inhibition equal to -6.1

Per the records, this compound ( CC(C)(Oc1ccc(C(=O)c2ccc(Cl)cc2)cc1Cl)C(=O)N1CCN(c2ccccc2)CC1 ) has growth inhibition equal to 2

Per the records, this compound ( COC(=O)C1CCC(=O)N1Cc1cccs1 (stereo not given) ) has growth inhibition equal to -22.9

Per the records, this compound ( C/C(=N\N/C=N/S(=O)(=O)c1ccccc1)c1ccccc1 ) has growth inhibition equal to -12.2

Per the records, this compound ( NC(=O)Nc1nc2ccccc2[nH]1 ) has growth inhibition equal to -26.2
